Please provide measured Th-T fluorescence, mean of three wells (Fig. 7a) for the entries that follow.
Molecular target: Aβ42 (Homo sapiens, UniProt P05067)
Sequence (P05067 672-713): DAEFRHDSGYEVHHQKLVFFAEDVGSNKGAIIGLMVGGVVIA
Experiment: Th-T (thioflavin-T) assay of Aβ42 aggregation
Type: biochemical
Conditions: column suffix _10; measurement M21
Returns: the value as a bare number; no unit string appended.

Recorded Th-T fluorescence, mean of three wells (Fig. 7a) for C=C1CCC2C(C)(CCC=C(C)C)C(O)CCC2(C)C1Cc1c(OC)oc(CO)c(C(=O)OC)c1=O (centres unmarked) with Aβ42 (Homo sapiens, UniProt P05067), please?
0.2394

Recorded Th-T fluorescence, mean of three wells (Fig. 7a) for C=C1CCC2C(C)(CCC=C(C)C)C(O)CCC2(C)C1Cc1c(OC)oc(C)c(C(=O)OC)c1=O (centres unmarked) with Aβ42 (Homo sapiens, UniProt P05067), please?
2.17

Recorded Th-T fluorescence, mean of three wells (Fig. 7a) for C=C1CCC2C(C)(CCC=C(C)C)C(O)CCC2(C)C1Cc1c(OC)oc(CO)c(C)c1=O (centres unmarked) with Aβ42 (Homo sapiens, UniProt P05067), please?
2.632

Recorded Th-T fluorescence, mean of three wells (Fig. 7a) for C=C1CC[C@@H]2[C@](C)(CC[C@H]3O[C@H](C=C(C)C)C[C@@]23C)[C@@H]1Cc1c(OC)oc(CO)c(C(=O)OC)c1=O with Aβ42 (Homo sapiens, UniProt P05067), please?
0.2311

Recorded Th-T fluorescence, mean of three wells (Fig. 7a) for C=C1CC[C@@H]2[C@](C)(CC[C@H]3O[C@H](C=C(C)C)C[C@@]23C)[C@@H]1Cc1c(OC)oc(CO)c(C)c1=O with Aβ42 (Homo sapiens, UniProt P05067), please?
3.434

====

Biological target: Aβ42 (Homo sapiens, UniProt P05067)
Test: Th-T (thioflavin-T) assay of Aβ42 aggregation
Format: biochemical
Conditions: compound at 20; reading M59 of time course
Answer NO if Th-T fluorescence, mean of three wells is under 2, and YES if it is 2 or more.

Th-T fluorescence, mean of three wells >= 2 for C=C1CCC2C(C)(CCC=C(C)C)C(O)CCC2(C)C1Cc1c(OC)oc(CO)c(C)c1=O (centres unmarked) [Compound 12] ?
YES

Th-T fluorescence, mean of three wells >= 2 for C=C1CC[C@@H]2[C@](C)(CC[C@H]3O[C@H](C=C(C)C)C[C@@]23C)[C@@H]1Cc1c(OC)oc(CO)c(C)c1=O [Compound 20] ?
YES

Th-T fluorescence, mean of three wells >= 2 for C=C1CC[C@@H]2[C@](C)(CC[C@H]3O[C@H](C=C(C)C)C[C@@]23C)[C@@H]1Cc1c(OC)oc(CO)c(C(=O)OC)c1=O [Compound 21] ?
NO

Th-T fluorescence, mean of three wells >= 2 for C=C1CCC2C(C)(CCC=C(C)C)C(O)CCC2(C)C1Cc1c(OC)oc(CO)c(C(=O)OC)c1=O (centres unmarked) [Compound 13] ?
NO

====

Molecular target: Aβ42 (Homo sapiens, UniProt P05067)
Assay: Th-T (thioflavin-T) assay of Aβ42 aggregation
Type: biochemical
Conditions: head suffix _50 (concentration 50); reading M65
Under this convention, t denotes Th-T fluorescence of Aβ42 (sheet Fig. 7a), mean of three wells strictly below 1 and f denotes Th-T fluorescence of Aβ42 (sheet Fig. 7a), mean of three wells at or above 1.

In plain terms, does C=C1CCC2C(C)(CCC=C(C)C)C(O)CCC2(C)C1Cc1c(OC)oc(CO)c(C(=O)OC)c1=O (centres unmarked) [Compound 13] come in under 1 for Th-T fluorescence of Aβ42 (sheet Fig. 7a), mean of three wells?
t

In plain terms, does C=C1CC[C@@H]2[C@](C)(CC[C@H]3O[C@H](C=C(C)C)C[C@@]23C)[C@@H]1Cc1c(OC)oc(CO)c(C(=O)OC)c1=O [Compound 21] come in under 1 for Th-T fluorescence of Aβ42 (sheet Fig. 7a), mean of three wells?
t

In plain terms, does C=C1CCC2C(C)(CCC=C(C)C)C(O)CCC2(C)C1Cc1c(OC)oc(CO)c(C)c1=O (centres unmarked) [Compound 12] come in under 1 for Th-T fluorescence of Aβ42 (sheet Fig. 7a), mean of three wells?
f

In plain terms, does C=C1CCC2C(C)(CCC=C(C)C)C(O)CCC2(C)C1Cc1c(OC)oc(C)c(C(=O)OC)c1=O (centres unmarked) [Compound 14] come in under 1 for Th-T fluorescence of Aβ42 (sheet Fig. 7a), mean of three wells?
f

In plain terms, does C=C1CC[C@@H]2[C@](C)(CC[C@H]3O[C@H](C=C(C)C)C[C@@]23C)[C@@H]1Cc1c(OC)oc(CO)c(C)c1=O [Compound 20] come in under 1 for Th-T fluorescence of Aβ42 (sheet Fig. 7a), mean of three wells?
f

====

Please provide measured Th-T assay plate reading, mean of three wells (Supplementary Fig. 47) for the entries that follow.
Biological target: Aβ42 (Homo sapiens)
Experiment: Th-T (thioflavin-T) assay of Aβ42 aggregation
Assay type: biochemical
Settings: measurement M6; source data, Ab alone and No Ab as controls
Returns: the value as a bare number; no unit string appended.

Dear colleague, I am looking for the recorded Th-T assay plate reading, mean of three wells (Supplementary Fig. 47) of the following compound: C=C1CC[C@@H]2[C@](C)(CC[C@H]3O[C@H](C=C(C)C)C[C@@]23C)[C@@H]1Cc1c(OC)oc(CO)c(C)c1=O
0.3834

Dear colleague, I am looking for the recorded Th-T assay plate reading, mean of three wells (Supplementary Fig. 47) of the following compound: C=C1CC[C@H]2[C@]3(C)C[C@H](C=C(C)C)O[C@H]3CC[C@]2(C)[C@@H]1Cc1c(OC)oc(C)c(C)c1=O
0.2405

Dear colleague, I am looking for the recorded Th-T assay plate reading, mean of three wells (Supplementary Fig. 47) of the following compound: C=C1CCC2C(C)(CCC=C(C)C)C(O)CCC2(C)C1Cc1c(OC)oc(CO)c(C(=O)OC)c1=O (stereo not drawn)
0.2004

====

Please provide measured Th-T fluorescence, mean of three wells for the entries that follow.
Target: Aβ42 (Homo sapiens, UniProt P05067)
Test: Th-T (thioflavin-T) assay of Aβ42 aggregation
Format: biochemical
Settings: Aβ42 aggregation time course, reading M131
Returns: the value as a bare number; no unit string appended.

Dear colleague, I am looking for the recorded Th-T fluorescence, mean of three wells of the following compound: C=C1CC[C@H]2[C@]3(C)C[C@@H](C=C(C)C)O[C@H]3CC[C@]2(C)[C@@H]1Cc1c(OC)oc(CO)c(C)c1=O
3.621

Dear colleague, I am looking for the recorded Th-T fluorescence, mean of three wells of the following compound: C=C1CCC2C(C)(CC(=O)C=C(C)C)C(O)CCC2(C)C1Cc1c(OC)oc(C)c(C)c1=O (stereo not shown)
3.5322

Dear colleague, I am looking for the recorded Th-T fluorescence, mean of three wells of the following compound: C=C1CCC2C3(C)CC(C=C(C)C)OC3CCC2(C)C1Cc1c(OC)oc(C)c(C)c1=O (stereo not shown)
3.7932

Dear colleague, I am looking for the recorded Th-T fluorescence, mean of three wells of the following compound: C=C1CC[C@@H]2[C@](C)(CC[C@H]3O[C@H](C=C(C)C)C[C@@]23C)[C@@H]1Cc1c(O)c(C)c(C)oc1=O
2.988

Dear colleague, I am looking for the recorded Th-T fluorescence, mean of three wells of the following compound: C=C1CCC2C(C)(CC(=O)C=C(C)C)C(O)CCC2(C)C1Cc1c(O)c(C)c(C)oc1=O (stereo not shown)
3.434

Dear colleague, I am looking for the recorded Th-T fluorescence, mean of three wells of the following compound: C=C1CCC2C(C)(CCC=C(C)C)C(=O)CCC2(C)C1Cc1c(O)c(C)c(C)oc1=O (stereo not shown)
2.189

Dear colleague, I am looking for the recorded Th-T fluorescence, mean of three wells of the following compound: C=C1CC[C@H]2[C@]3(C)C[C@H](C=C(C)C)O[C@H]3CC[C@]2(C)[C@@H]1Cc1c(OC)oc(C)c(C)c1=O
3.869

Dear colleague, I am looking for the recorded Th-T fluorescence, mean of three wells of the following compound: C=C1CC[C@H]2[C@]3(C)C[C@H](C=C(C)C)O[C@H]3CC[C@]2(C)[C@@H]1Cc1c(OC)oc(CO)c(C)c1=O
3.755

Dear colleague, I am looking for the recorded Th-T fluorescence, mean of three wells of the following compound: C=C1CCC2C(C)(CCC=C(C)C)C(O)CCC2(C)C1Cc1c(OC)oc(C)c(C)c1=O (stereo not shown) [Compound 11]
3.331

Dear colleague, I am looking for the recorded Th-T fluorescence, mean of three wells of the following compound: C=C1CCC2C(C)(CC(=O)C=C(C)C)C(O)CCC2(C)C1Cc1c(OC)oc(CO)c(C)c1=O (stereo not shown)
3.596
